EXPERIMENTAL_TARGET: Dipeptidyl peptidase 4 (Homo sapiens, UniProt P27487)
Sequence (P27487 whole entry): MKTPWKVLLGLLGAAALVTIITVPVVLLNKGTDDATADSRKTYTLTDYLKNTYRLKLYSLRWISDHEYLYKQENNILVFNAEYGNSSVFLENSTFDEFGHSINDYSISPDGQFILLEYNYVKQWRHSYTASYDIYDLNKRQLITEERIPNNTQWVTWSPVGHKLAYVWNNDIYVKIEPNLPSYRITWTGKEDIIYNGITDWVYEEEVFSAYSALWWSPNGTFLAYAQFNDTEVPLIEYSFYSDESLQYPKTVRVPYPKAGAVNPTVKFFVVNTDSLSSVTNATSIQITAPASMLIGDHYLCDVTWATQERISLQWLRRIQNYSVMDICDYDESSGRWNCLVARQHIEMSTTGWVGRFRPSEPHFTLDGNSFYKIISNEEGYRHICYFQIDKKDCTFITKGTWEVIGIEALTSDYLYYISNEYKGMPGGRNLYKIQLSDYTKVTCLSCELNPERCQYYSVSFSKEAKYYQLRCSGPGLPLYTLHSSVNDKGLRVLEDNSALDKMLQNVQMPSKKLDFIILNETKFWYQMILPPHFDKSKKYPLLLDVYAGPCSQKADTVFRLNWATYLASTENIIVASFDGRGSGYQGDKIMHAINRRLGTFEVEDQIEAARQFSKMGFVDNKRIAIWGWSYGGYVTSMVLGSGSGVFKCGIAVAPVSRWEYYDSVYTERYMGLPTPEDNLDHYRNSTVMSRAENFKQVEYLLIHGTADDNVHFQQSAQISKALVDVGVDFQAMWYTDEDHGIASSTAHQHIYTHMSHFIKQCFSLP
In this section we review reported IC50 values for a set of compounds.

Guide cases for IC50, answers given:
STRUCTURE_SMILES	IC50
Cc1ccc(S(=O)(=O)N2CCCN2C(=O)C[C@H](N)Cc2cc(F)c(F)cc2F)cc1	500 nM
N[C@@H](CC(=O)N1CCCN1C(=O)c1ccccc1)Cc1cc(F)c(F)cc1F	350 nM

Here is the next item to consider.
Input: Observed IC50 on Dipeptidyl peptidase 4 (Homo sapiens, UniProt P27487) for N[C@@H](CC(=O)N1CCCN1)Cc1cc(F)c(F)cc1F , please.
Output: 3850 nM
